Assay: NCI Yeast Anticancer Drug Screen. Data for the sgs1 mgt1 strain (AID 161)
Details: S. cerevisiae sgs1 mgt1 strain, at 50.0 µM (retest, dose inferred, filed as 5.0), active compounds read high
The panel holds about 79,000 compounds, 15% with a hit somewhere; the sample as a whole holds those more often. Where a SMILES comes first, the peptide text is derived from it. [ ]: non-standard residue; d: D form. Nva = CCC[CH](N)C(=O)O
Please assign a class to every record based on measured growth inhibition, with ranges range A (below 20%), range B (20% to below 80%), range C (80% or more)

Lab note: which band did `O=C(O)CSc1cc2c3ccccc3sc2c2ccccc12` land in?
range C

Lab note: which band did `CCN(CC)C(=O)CCCCC(=O)OC(C)C` land in?
range A

Lab note: which band did CCOC(=O)C1CCN(Cc2ccccc2)CC1=O (centres undefined) land in?
range C

Lab note: which band did `CN(C)C=Nc1c2ccccc2nc2ccccc12` land in?
range B

Lab note: which band did `Cc1ncn(-c2ccccc2O)c1C` land in?
range A

Lab note: which band did `CN(C)C(=S)/N=c1\ss/c(=N\C(=S)N(C)C)n1-c1ccc(Cl)cc1` land in?
range A

Lab note: which band did `S=C(Nc1ccc2cn[nH]c2c1)Nc1ccc2cn[nH]c2c1` land in?
range A

Lab note: which band did `CCCCCCCC/C(C=O)=C\c1ccccc1` land in?
range A

Lab note: which band did CC(C)OC(=O)C1C=CCc2c(O)ccc(O)c21 (centres undefined) land in?
range B

Lab note: which band did CCOC(=O)C(Br)C(Br)c1cccc(Cl)c1 (centres undefined) land in?
range C

Lab note: which band did `O=C(Cc1ccc(C2=NCCN2)cc1[N+](=O)[O-])c1ccc(C2=NCCN2)cc1` land in?
range B

Lab note: which band did `CC(=O)Oc1c(Br)ccc2cc(C(Br)Br)c(C(=O)c3ccccc3)nc12` land in?
range B

Lab note: which band did `O=NNc1ccc(-c2ccc([N+](=O)[O-])cc2)cn1` land in?
range B

Lab note: which band did `CN(C)c1ccccc1CCCCCCc1ccccc1N(C)C` land in?
range B

Lab note: which band did `C=CC(=O)c1ccc2c(c1)OCCOCCOCCOCCOCCO2` land in?
range B

Lab note: which band did `CP(=O)(c1ccccc1)c1ccccc1` land in?
range A

Lab note: which band did CCCCCCCCC/C=C1\CCC(CN(C)C)C1=O (centres undefined) land in?
range C

Lab note: which band did `S=C(N/N=C(/c1ccccc1)c1ccccn1)Nc1ccccc1` land in?
range C

Lab note: which band did `CCC1=C(C)/C(=C/c2[nH]c(C(Br)Br)c(CC)c2C)N=C1C(Br)Br` land in?
range C

Lab note: which band did `Cc1cc2nc3c(C)c4ccccc4c(C)n3c2cc1C` land in?
range B

Lab note: which band did `O=C(/C=C(\OB(F)F)c1ccccc1)c1ccccc1` land in?
range A

Lab note: which band did `COc1ccc2c(Cc3ccc(O)cc3)cncc2c1O` land in?
range A

Lab note: which band did O=[N+]([O-])c1cccn2nc(C3OC(CO)C(O)C3O)nc12 (centres undefined) land in?
range A

Lab note: which band did O=C1CC(c2ccccc2)C(c2ccccc2)CO1 (centres undefined) land in?
range C

Lab note: which band did `CCOC(=O)c1cnc2cc3cccccc3n2c1=O` land in?
range B

Lab note: which band did CCCCN(CCCC)CC(O)c1ccc2cc(Cl)c3ccccc3c2c1 (centres undefined) land in?
range C

Lab note: which band did `Cc1cccc2c(=O)c3ccccc3oc12` land in?
range A

Lab note: which band did `Cc1ccc2[nH]c3c(c2c1)CCC/C3=N/N=C(N)N` land in?
range C

Lab note: which band did `Nn1c2ccccc2c2ccccc21` land in?
range A

Lab note: which band did CCCC(N)C(=O)NC(C(=O)O)C(C)C (centres undefined) (H-[Nva]-Val-OH; configuration not given here) land in?
range A

Lab note: which band did `O=C(NCc1ccccc1)N1CCN(c2ccccc2)C1=O` land in?
range A

Lab note: which band did `CCn1c(C)cc(=O)n1-c1ccc([N+](=O)[O-])cc1` land in?
range A

Lab note: which band did `Cc1cc(N2C(=O)CSC2=S)c([N+](=O)[O-])cc1C` land in?
range C

Lab note: which band did `CC(C)SC(=S)Nc1cc(C(F)(F)F)ccc1Cl` land in?
range C

Lab note: which band did `Cc1ccc(O)c(C(C)(C)c2ccccc2)c1` land in?
range B

Lab note: which band did `NCc1ccc(O)c(O)c1O` land in?
range B

Lab note: which band did O=C1C(C(O)(C(F)(F)Cl)C(F)(F)Cl)CCC1C(O)(C(F)(F)Cl)C(F)(F)Cl (centres undefined) land in?
range C

Lab note: which band did `O=C(NC1=Nc2c(ncn2COCCO)S(=O)(=O)[N-]1)c1ccccc1.[Ag+]` land in?
range C

Lab note: which band did `N#CCCN(C(=S)Nc1ccc(Cl)c(Cl)c1)C1CCCCC1` land in?
range C

Lab note: which band did `CCc1ccc(C)nc1` land in?
range A

Lab note: which band did `O=[N+]([O-])/C(C(Cl)=C(Cl)Cl)=C(/Nc1ccccc1)SCc1ccccc1` land in?
range C

Lab note: which band did `C#CC(=O)OCC#CCOC(=O)C#C` land in?
range C

Lab note: which band did `C[n+]1c(-c2ccc(/C=N\NC(=O)c3ccc(C(=O)N/N=C/c4ccc(-c5cn6ccsc6[n+]5C)cc4)cc3)cc2)cn2ccsc21` land in?
range C
